- system_tested: T1, human TF on the cell surface of tumor cells (human, UniProt P13726 33-295)
- T1 construct: whole, on cells; Endogenous TF on TF-positive human tumor cell lines; also called cell surface TF
- protocol_description: flow cytometry on MDA-MB-231 cells, antibody at 1 µg/mL
In this section we review reported MFI values for a set of binders.
The answer should be written as a number, with no unit following it.

binder: TF-mAb-H40 (antibody, V domains shown, Humanized) VH: EVQLVQSGAEVKKPGESLKISCKGSGYSFTSYWMNWVRQMPGKGLEWMGMIYPADSETRLNQKFKDKATLSVDKSISTAYLQWSSLKASDTAMYYCAREDYGSSDYWGQGTTVTVSS VL: DIQLTQSPSSLSASVGDRVTITCSASSSVSYMNWYQQKPGKSPKIWIYGISNLASGVPSRFSGSGSGTDFTLTISSLQPEDFATYYCQQKSSFPWTFGGGTKVEIK
MFI: 3180

Prompt: Any idea what its MFI is? The binder is TF-mAb-H43 (antibody, V domains shown, Humanized) VH: QVQLVQSGSELKKPGASVKVSCKASGYSFISYWMNWVRQAPGQGLEWIGMIYPADSETRLNQKFKDRAVLSVDKSVSTAYLQICSLKAEDTAVYYCAREDYGSSDYWGQGTTVTVSS VL: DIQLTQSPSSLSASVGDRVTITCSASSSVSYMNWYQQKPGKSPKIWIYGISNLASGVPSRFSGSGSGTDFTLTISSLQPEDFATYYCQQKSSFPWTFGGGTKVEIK
Response: 2820

Prompt: Next entry: TF-mAb-H46 (antibody, V domains shown, Humanized) VH: EVQLVQSGAEVKKPGESLKISCKGSGYSFTSYWMNWVKQMPGKGLEWMGMIYPADSETRLNQKFKDKATLSVDKSISTAYLQWSSLKASDTAMYYCAREDYGSSDYWGQGTTVTVSS VL: EIVLTQSPDFQSVTPKEKVTITCSASSSVSYMNWYQQKPDQSPKIWIYGISNLASGVPSRFSGSGSGTDFTLTINSLEAEDAATYYCQQKSSFPWTFGGGTKVEIK
Response: 3120

Prompt: TF-mAb-H47 (antibody, V domains shown, Humanized) VH: QVQLVQSGAEVKKPGASVKVSCKASGYSFISYWMNWVRQAPGQGLEWIGMIYPADSETRLNQKFKDRATLTVDKSTSTAYMELSSLRSEDTAVYYCAREDYGSSDYWGQGTTVTVSS VL: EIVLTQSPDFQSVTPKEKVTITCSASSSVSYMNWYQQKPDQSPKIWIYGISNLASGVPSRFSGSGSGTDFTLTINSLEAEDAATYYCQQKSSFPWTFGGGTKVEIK , same question.
Response: 3000

Prompt: Same read-out for TF-mAb-H36 (antibody, V domains shown, Humanized) VH: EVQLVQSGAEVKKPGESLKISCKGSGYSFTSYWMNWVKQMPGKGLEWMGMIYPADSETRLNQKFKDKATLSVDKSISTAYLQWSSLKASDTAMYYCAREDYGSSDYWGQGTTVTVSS VL: EIVLTQSPATLSLSPGERATLSCSASSSVSYMNWYQQKPGQSPRIWIYGISNLASGVPARFSGSGSGTDFTLTISSLEPEDFAVYYCQQKSSFPWTFGGGTKVEIK ?
Response: 3040

Just for reference, patent US20190177431A1 is where these values come from.
